Consider the following compounds; for each one, report its MIC.
Tested on: SAU 29213
Test: MIC, broth microdilution (CLSI), substance alone or ATB combined with compound at 4 or 8 μg/mL
Assay type: cell-based, S. aureus
Settings: substance alone; SAU 29213 (MSSA 29213)
Give the value in µg/mL but do not write µg/mL after it.

Input: Given the compound O=C1N2CC(n3ccnn3)=CC(C2)N1OS(=O)(=O)[O-].[Na+] (stereo not shown) , write its reported MIC.
Output: 8

Input: Given the compound `O=C1N2CC(n3ccnn3)=C[C@H](C2)N1OS(=O)(=O)[O-].[Na+]` , write its reported MIC.
Output: 4

----------
Test system: SPN 49619
Test: MIC, broth microdilution (CLSI), substance alone or ATB combined with compound at 4 or 8 μg/mL
Format: cell-based, S. pneumoniae
Details: MIC of CLI; compound @8 μg/ml; SPN 49619
Consider the following molecules; for each one, report its MIC ATB combined with Example compound.
Give the value in µg/mL but do not write µg/mL after it.

Input: Given the molecule O=C1N2CC(c3ncco3)=CC(C2)N1OC(F)(F)C(=O)O (stereo not drawn) , write its reported MIC ATB combined with Example compound.
Output: 0.125

Input: Given the molecule NC[C@H]1C=C(c2cnco2)[C@@H]2CN1C(=O)N2OS(=O)(=O)[O-].O=C(O)C(F)(F)F.[Na+] (relative stereo) , write its reported MIC ATB combined with Example compound.
Output: 0.063

Input: Given the molecule O=C1N2CC(n3cccn3)=CC(C2)N1OC(F)(F)C(=O)[O-].[Li+] (stereo not drawn) , write its reported MIC ATB combined with Example compound.
Output: 0.063

Input: Given the molecule O=C1N2CC(n3cccn3)=CC(C2)N1OS(=O)(=O)[O-].[Na+] (stereo not drawn) , write its reported MIC ATB combined with Example compound.
Output: 0.0078

----------
Consider the following compounds; for each one, report its MIC ATB combined with Example 9 @4 μg/ml.
System: KPN UFR42
Assay: MIC, broth microdilution (CLSI), substance alone or ATB combined with compound at 4 or 8 μg/mL
Format: cell-based, K. pneumoniae
Conditions: KPN UFR42; with Example 9 at 4 μg/ml

Input: With KPN UFR42 as the test system, provide measured MIC ATB combined with Example 9 @4 μg/ml for this compound: COCC1=C(C(=O)O)N2C(=O)[C@@H](NC(=O)/C(=N\OC)c3csc(N)n3)[C@H]2SC1 [POD, Cefpodoxime, reference compound]
Output: >32 µg/mL

Input: With KPN UFR42 as the test system, provide measured MIC ATB combined with Example 9 @4 μg/ml for this compound: CO/N=C(\C(=O)N[C@@H]1C(=O)N2C(C(=O)O)=C(COC(N)=O)CS[C@H]12)c1ccco1 [FUR, Cefuroxime, reference compound]
Output: >32 µg/mL

Input: With KPN UFR42 as the test system, provide measured MIC ATB combined with Example 9 @4 μg/ml for this compound: CC1(C)S[C@@H]2[C@H](NC(=O)[C@H](N)c3ccc(O)cc3)C(=O)N2[C@H]1C(=O)O [AMX, Amoxicillin, reference compound]
Output: >32 µg/mL

----------
System: PAE UFR90
Assay: MIC, broth microdilution (CLSI), substance alone or ATB combined with compound at 4 or 8 μg/mL
Type: cell-based, P. aeruginosa
Conditions: ATB FOS; compound @4 μg/ml; PAE UFR90
test.readout: MIC ATB combined with compound (µg/mL)
Give the value in µg/mL but do not write µg/mL after it.

Input: With PAE UFR90 as the test system, provide measured MIC ATB combined with compound for this molecule: NCCON=C1C[C@@H](C(N)=O)N2C[C@@H]1N(OS(=O)(=O)[O-])C2=O.[Na+] [Example 2]
Output: 4

Input: With PAE UFR90 as the test system, provide measured MIC ATB combined with compound for this molecule: O=C1N2CC(c3ncco3)=C[C@H](C2)N1OS(=O)(=O)[O-].[Na+] [Example 9]
Output: 4
